- experimentalSystem: HLA-DR DRB3*0101 (DR52) (Homo sapiens, UniProt P01903+P79483)
- measurementDescription: biochemical
- Type: binding
- conditionDescription: read-out: DRB3 *0101
Binning rule for recorded IC50: group A (below 6 µM), group B (6 µM to below 20 µM), group C (20 µM or more)

- MSAMTALAALFPPEG: group B
- YAAFAAAKTAAAFA: group C
- RLFDNAMLRAHRLHQ: group C
- TAWTIYRVEILRNFY: group B
- SHDLMLLRLSEPAKI: group A
- LGFLQRSSNTQTQKL: group C
- HQAISPRTLNSPAIF: group C
- YLVTGERGFFYTKPT: group B
- VAQVRGGNIVFELANS: group C
- GGVLVNEILNHMKRA: group B
- KPAVYTKVVHYRKWI: group B
- TLERPKTLSPGKNGV: group C
- VRVEILRNFYVINRL: group C
- FVNQHLTGSHLVEAL: group C
- FPTIPLSRLFDNAML: group C
- ALQAQKEAISPPDAA: group C
- VGGVYLLPRRGPRIGV: group C
- FAGIRRDGLLLRIVD: group A
- HSLFHPEDTGQVFQV: group A
- DSSLEGNYTLRVDCT: group A
- LGFFPDHQLDPAFRAN: group A

###

- experimentalSystem: HLA-DR DRB1*0101 (DR1) (Homo sapiens, UniProt P01903+P01911, A100R/D57E/F55L/F60I/F76Y/I96L/L162R/M171V/P40L/Q125E/R42F/V115G/Y59C)
- measurementDescription: biochemical
- Assay type: binding
- conditionDescription: DRB1 *0101
pIC50: −log10 of the molar value. No end group written: not given here.
Measured pIC50 values are reported for all entries that follow.
measurementKind: pIC50

* ALLKNYGLLYTFRKD | 7.72
* KEYVLDLYPEPTDLY | 5.23
* YLVTGERGFFYTDKT | 5.49
* KEDSHTAWTIVRVEI | 5.72
* YLVTGERGFFYTPKT | 6.11
* KLSQELHKLQTYPRT | 7.72
* RTGQIFKQTYSKFDT | 5.81
* VPTLQDVVLELTPQT | 4.79
* VEALYLVCGERGSFY | 7.06
* YKFLFTDLRIVYRDN | 6.96
* MTLYQIQVMKRNQKQ | 5.91
* DHRQLQLSISSCLQQLSLLM | 5.87
* HQAISPRTLNGPGPGSPAIF | 5.81
* FLRSVFANSLVYGAS | 8.37
* ELVSEFSRMARDPQ | 6.70
* GVIYIMIISKKMMRK | 8.00

###

- experimentalSystem: HLA-DR DRB1*1501 (DR15) (Homo sapiens, UniProt P01903+P01911)
- measurementDescription: biochemical
- Assay type: binding
- conditionDescription: DRBI *1501
IC50 strictly under 5000 nM means satisfied; at 5000 nM or over means not satisfied.

- CSCC[C@H](NC(=O)[C@H](CC(=O)O)NC(=O)[C@H](Cc1ccc(O)cc1)NC(=O)[C@H](CC(C)C)NC(=O)[C@@H]1CCCN1C(=O)[C@H](Cc1c[nH]cn1)NC(=O)[C@@H]1CCCN1)C(=O)N[C@@H](CO)C(=O)N[C@@H](CC(C)C)C(=O)N[C@@H](CC(C)C)C(=O)N[C@@H](CCCCN)C(=O)N[C@@H](CC(N)=O)C(=O)N[C@@H](CCCNC(=N)N)C(=O)N[C@@H](Cc1ccccc1)C(=O)N[C@@H](CC(C)C)C(=O)O: satisfied
- CC[C@H](C)[C@H](NC(=O)[C@@H](NC(=O)[C@H](CC(C)C)NC(=O)[C@H](CC(=O)O)NC(=O)[C@@H](NC(=O)[C@H](Cc1ccccc1)NC(=O)[C@H](C)NC(=O)[C@H](Cc1ccccc1)NC(=O)[C@H](CC(=O)O)NC(=O)[C@H](CC(C)C)NC(=O)[C@@H](N)C(C)C)[C@@H](C)O)[C@@H](C)O)C(=O)N[C@H](C(=O)N[C@@H](Cc1ccc(O)cc1)C(=O)N[C@@H](CCCNC(=N)N)C(=O)N[C@@H](CC(=O)O)C(=O)O)C(C)C: satisfied
- CC[C@H](C)[C@H](NC(=O)[C@@H](N)CCC(N)=O)C(=O)N[C@@H](Cc1ccc(O)cc1)C(=O)N[C@H](C(=O)N[C@@H](C)C(=O)N[C@@H](C)C(=O)N[C@@H](Cc1ccccc1)C(=O)N[C@H](C(=O)N[C@H](C(=O)N[C@@H](CCC(N)=O)C(=O)N[C@@H](C)C(=O)N[C@@H](C)C(=O)N[C@@H](C)C(=O)N[C@@H](CCC(=O)O)C(=O)N[C@H](C(=O)O)[C@@H](C)O)C(C)C)[C@@H](C)O)C(C)C: satisfied
- CC[C@H](C)[C@H](NC(=O)[C@@H](NC(=O)[C@H](Cc1c[nH]cn1)NC(=O)[C@@H](N)CC(C)C)C(C)C)C(=O)N[C@@H](CO)C(=O)N[C@@H](CC(N)=O)C(=O)N[C@@H](CC(=O)O)C(=O)N[C@H](C(=O)N[C@@H](CS)C(=O)N[C@@H](C)C(=O)N[C@@H](CCC(N)=O)C(=O)N[C@H](C(=O)N[C@@H](Cc1c[nH]cn1)C(=O)N1CCC[C@H]1C(=O)N[C@@H](CCC(N)=O)C(=O)O)C(C)C)C(C)C: not satisfied
